format: physicochemical; settings: pH 7.8
Residues, ends and D or L forms follow the SMILES beside them.
measured quantity: solubility

Input line: Which solubility value belongs to CC[C@H](C)[C@H](NC(C)=O)C(=O)N[C@@H](Cc1c[nH]cn1)C(=O)N[C@H](C(=O)N[C@H](C(=O)N[C@H](C(=O)N1CCC[C@H]1C(=O)N[C@@H](C)C(=O)N[C@@H](CCC(=O)O)C(=O)N[C@@H](CC(C)C)C(=O)N[C@@H](Cc1c[nH]c2ccccc12)C(=O)N[C@@H](CC(=O)O)C(=O)N[C@@H](Cc1c[nH]c2ccccc12)C(=O)N[C@H](C(=O)N[C@@H](CC(N)=O)C(=O)N[C@@H](CCCCN)C(N)=O)[C@@H](C)CC)[C@@H](C)CC)[C@@H](C)O)C(C)C [SEQ ID NO: 5] (Ac-IHVTIPAELWDWINK-NH2) ?
Output line: ≥ 1000 µM
